- Organism: Rattus norvegicus
- method_summary: Open TG-GATES - Regimen: Single
- Type: toxicity, organism-based, Sprague-Dawley
- Set-up: regimen Single, gender Male, age 6 weeks
- settings: in vivo, po, 100 mg/kg, 3 h, tissue Blood, route gavage, dose level Low
measurement_label: MCHC (%)
Entry rule: numbers only, all in %.

// below: answered molecules
Cc1nnc2n1-c1ccc(Cl)cc1C(c1ccccc1Cl)=NC2	33
O=C(OC[C@H]1O[C@@H](OC(=O)c2cc(O)c(O)c(OC(=O)c3cc(O)c(O)c(O)c3)c2)[C@H](OC(=O)c2cc(O)c(O)c(OC(=O)c3cc(O)c(O)c(O)c3)c2)[C@@H](OC(=O)c2cc(O)c(O)c(OC(=O)c3cc(O)c(O)c(O)c3)c2)[C@@H]1OC(=O)c1cc(O)c(O)c(OC(=O)c2cc(O)c(O)c(O)c2)c1)c1cc(O)c(O)c(OC(=O)c2cc(O)c(O)c(O)c2)c1	33.8
CN/C(=N/CCSCc1nc[nH]c1C)NC#N	34.2
COC(=O)C1=C(C)NC(C)=C(C(=O)OC)C1c1ccccc1[N+](=O)[O-]	32.8

Which MCHC value is on record for CNC(=C[N+](=O)[O-])NCCSCc1ccc(CN(C)C)o1 ?
34.5

* * *

- Organism: Rattus norvegicus
- method_summary: Open TG-GATES - Regimen: Daily Repeat
- Format: toxicity, organism-based, Sprague-Dawley
- Design: regimen Daily Repeat, gender Male, age 6 weeks
- settings: in vivo, po, 100 mg/kg, […], tissue Plasma, route gavage, dose level Low, time 7 day
# if measured RALB < 3 g/dL: Fulfilled  # else: Not fulfilled

As a guide, the following entries are already answered.
Cc1nnc2n1-c1ccc(Cl)cc1C(c1ccccc1Cl)=NC2 [TRIAZOLAM]	Fulfilled
CN/C(=N/CCSCc1nc[nH]c1C)NC#N [CIMETIDINE]	Not fulfilled
CNC(=C[N+](=O)[O-])NCCSCc1ccc(CN(C)C)o1 [RANITIDINE]	Not fulfilled
COC(=O)C1=C(C)NC(C)=C(C(=O)OC)C1c1ccccc1[N+](=O)[O-] [NIFEDIPINE]	Fulfilled
CCOc1ccc(NC(C)=O)cc1 [PHENACETIN]	Fulfilled

Please look at the following molecule next.
Regarding O=C(OC[C@H]1O[C@@H](OC(=O)c2cc(O)c(O)c(OC(=O)c3cc(O)c(O)c(O)c3)c2)[C@H](OC(=O)c2cc(O)c(O)c(OC(=O)c3cc(O)c(O)c(O)c3)c2)[C@@H](OC(=O)c2cc(O)c(O)c(OC(=O)c3cc(O)c(O)c(O)c3)c2)[C@@H]1OC(=O)c1cc(O)c(O)c(OC(=O)c2cc(O)c(O)c(O)c2)c1)c1cc(O)c(O)c(OC(=O)c2cc(O)c(O)c(O)c2)c1 [TANNIC ACID] , kindly confirm whether its RALB is beneath 3 g/dL.
Not fulfilled

* * *

Consider the following compounds and their measured MCV readings.
- Species: Rattus norvegicus
- method_summary: Open TG-GATES - Regimen: Single
- Assay type: toxicity, organism-based, Sprague-Dawley
- Parameters: regimen Single, gender Male, age 6 weeks
- settings: in vivo, po, 300 mg/kg, 6 h, tissue Blood, route gavage, dose level Middle
Entry rule: numbers only, all in fL.

Which MCV value is on record for O=C(OC[C@H]1O[C@@H](OC(=O)c2cc(O)c(O)c(OC(=O)c3cc(O)c(O)c(O)c3)c2)[C@H](OC(=O)c2cc(O)c(O)c(OC(=O)c3cc(O)c(O)c(O)c3)c2)[C@@H](OC(=O)c2cc(O)c(O)c(OC(=O)c3cc(O)c(O)c(O)c3)c2)[C@@H]1OC(=O)c1cc(O)c(O)c(OC(=O)c2cc(O)c(O)c(O)c2)c1)c1cc(O)c(O)c(OC(=O)c2cc(O)c(O)c(O)c2)c1 [TANNIC ACID] ?
66.1

Which MCV value is on record for Cc1nnc2n1-c1ccc(Cl)cc1C(c1ccccc1Cl)=NC2 [TRIAZOLAM] ?
63

Attribution: ChEMBL document CHEMBL3885861
